Tested on: AAMU-Ab
Assay: Competitive antigen ELISA, cross-reactivity of AAMU-Ab
Type: binding, rabbit
Conditions: read-out: concentration required for 50% inhibition in the competitive antigen ELISA; AAMU-Ab
Experimental: Buffers and water without additives are filtered through millipore filters and kept for 1 week. BSA, antibodies, Tween™ 20 and horse radish peroxidase conjugates are added to these buffers and water just prior to use. Urine samples are usually collected 4 hours after drinking a cup of coffee (instant or brewed with approximately 100 mg of caffeine per cup) and stored at −80° C. […]
readout: IC50 (µM)
# value in µM; strip the unit string

Identify measured IC50 associated with CC(=O)Nc1c(N)n(C)c(=O)[nH]c1=O [5-Acetamino-6-amino-1-methyluracil] 1.5
